For each record, write down the corresponding melting point.

Sample CC(=S)NC[C@H]1CN(c2ccc(-c3nc(Cn4cncn4)cs3)c(F)c2)C(=O)O1 [Example 61] ; melting point observed: 180 to 182 °C

The recorded melting point for entry CC(=O)NC[C@H]1CN(c2ccc(-n3cnc(Cn4cccn4)c3)c(F)c2)C(=O)O1 (stereo in doubt) [Example 26] equals 158 to 160 °C

Measured melting point, COC(=S)NC[C@H]1CN(c2ccc(-n3cc(Cn4ccc(C(F)(F)F)n4)nn3)c(F)c2)C(=O)O1 [Example 59] : 179 to 180 °C

Field melting point (entry COC(=O)NC[C@H]1CN(c2ccc(-n3cnc(Cn4cccn4)c3)c(F)c2)C(=O)O1 [Example 44] ) reads 130 °C

CC(=O)NC[C@H]1CN(c2ccc(-c3nc(Cn4ccnc4)co3)c(F)c2)C(=O)O1 [Example 6] has a reported melting point of 198 to 200 °C

The reported value for CC(=O)NC[C@H]1CN(c2ccc(-c3nc(Cn4cccn4)co3)c(F)c2)C(=O)O1 [Example 2] in terms of melting point is 204 to 206 °C

The recorded melting point for entry CC(=O)NC[C@H]1CN(c2ccc(-c3nc(Cn4cncn4)cs3)c(F)c2)C(=O)O1 [Example 11] equals 196 to 198 °C

# melting point (molecule: COC(=O)NC[C@H]1CN(c2ccc(-n3cc(Cn4ccc(C(F)(F)F)n4)nn3)c(F)c2)C(=O)O1 [Example 49] ) is 129 to 130 °C

melting point measured on COC(=S)NC[C@H]1CN(c2ccc(-c3nc(Cn4cncn4)cs3)c(F)c2)C(=O)O1 [Example 52] = 189 to 191 °C

Value of melting point reported for the molecule CC(=S)NC[C@H]1CN(c2ccc(-c3csc(Cn4cncn4)n3)c(F)c2)C(=O)O1 [Example 63] is 82 to 84 °C

For record COC(=S)NC[C@H]1CN(c2ccc(-c3nc(Cn4ccnc4)cs3)c(F)c2)C(=O)O1 [Example 51] the listed melting point is 169 to 171 °C

Reported melting point for COC(=O)NC[C@H]1CN(c2ccc(-c3nc(Cn4cccn4)co3)c(F)c2)C(=O)O1 [Example 34] was 170 to 172 °C

For this molecule ( CCOC(=O)c1cn(Cc2cn(-c3ccc(N4C[C@H](CNC(=O)OC)OC4=O)cc3F)nn2)nc1N (stereo in doubt) [Example 47] ), measured melting point is 98 to 100 °C

Entry CC(=O)NC[C@H]1CN(c2ccc(-n3cc(Cn4cccn4)cn3)c(F)c2)C(=O)O1 [Example 20] , melting point reported as 186 to 187 °C

get_value(item= COC(=O)NC[C@H]1CN(c2ccc(-c3nc(Cn4cccn4)cs3)c(F)c2)C(=O)O1 [Example 36] , readout=melting point) returns 142 to 144 °C

The value of melting point measured for the molecule CC(=O)NC[C@H]1CN(c2ccc(-n3cc(Cn4ccc(C(F)(F)F)n4)nn3)c(F)c2)C(=O)O1 [Example 32] turned out to be 130 to 140 °C

So for CC(=O)NC[C@H]1CN(c2ccc(-n3cc(Cn4cncn4)cn3)c(F)c2)C(=O)O1 [Example 22] , the logged melting point turned out to be 126 to 127 °C

CC(=O)NC[C@H]1CN(c2ccc(-c3csc(Cn4cncn4)n3)c(F)c2)C(=O)O1 (stereo in doubt) [Example 14] yielded melting point of 154 to 156 °C

Entry COC(=O)NC[C@H]1CN(c2ccc(-n3cnc(Cn4cncn4)c3)c(F)c2)C(=O)O1 [Example 45] — recorded melting point = 184 to 186 °C
